# experimental.system: human serum albumin (HSA) (Homo sapiens, UniProt P02768)
# Sequence (P02768 25-609): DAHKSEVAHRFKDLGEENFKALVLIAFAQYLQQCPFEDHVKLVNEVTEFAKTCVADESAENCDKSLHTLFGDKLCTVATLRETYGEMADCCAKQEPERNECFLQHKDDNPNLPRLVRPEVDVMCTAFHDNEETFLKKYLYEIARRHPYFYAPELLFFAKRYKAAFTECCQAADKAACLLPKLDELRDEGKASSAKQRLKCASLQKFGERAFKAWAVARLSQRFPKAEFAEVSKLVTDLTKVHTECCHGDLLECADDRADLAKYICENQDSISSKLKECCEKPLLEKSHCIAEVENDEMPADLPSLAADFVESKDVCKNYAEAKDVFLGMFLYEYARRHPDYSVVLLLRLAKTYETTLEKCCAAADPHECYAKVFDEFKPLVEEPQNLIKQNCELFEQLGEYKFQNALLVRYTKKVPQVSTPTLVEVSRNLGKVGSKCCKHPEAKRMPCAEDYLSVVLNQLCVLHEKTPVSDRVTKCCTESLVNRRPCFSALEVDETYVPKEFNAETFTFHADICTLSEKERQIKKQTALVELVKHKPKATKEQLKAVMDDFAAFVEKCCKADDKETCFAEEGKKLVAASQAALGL
# test: Fluorescence ligand titration of HSA: quenching of intrinsic protein (Trp214) fluorescence, fitted Kd, n and FRET efficiency
# condition.description: excitation 295 nm, IFE-corrected
measured.parameter: Eexp
Answers are plain numbers.

Hello, I am looking for reported Eexp with human serum albumin (HSA) (Homo sapiens, UniProt P02768) for O=C(O)COc1cccc2cccnc12 . Could you help?
0.60

Hello, I am looking for reported Eexp with human serum albumin (HSA) (Homo sapiens, UniProt P02768) for O=C(O)c1c2ccccc2nc2ccccc12 . Could you help?
0.63

Hello, I am looking for reported Eexp with human serum albumin (HSA) (Homo sapiens, UniProt P02768) for C[C@H](C(=O)O)c1ccc2c(c1)[nH]c1ccc(Cl)cc12 [(S)‐carprofen] . Could you help?
0.42

Working through the 2 molecules below one at a time, give Eexp for each.
1. NCCNc1cccc2ccccc12
2. Oc1ccc2ccccc2c1

1. 0.55
2. 0.80
